Hello, the source for this data is BindingDB's records for doi:10.1016/j.bmc.2019.115216, in case you need it.

System: Autotaxin (ENPP2) (Mus musculus) (UniProt Q9R1E6)
Test method notes: Inhibition of recombinant mouse N-terminal polyHis-tagged ATX-beta (Ser49 to Ile862 residues) expressed in HEK293 cells assessed as reduction in cleavage of LPC into LPA and choline using LPC(16:0) as substrate by Amplex red reagent based fluorescence assay
Endpoint: IC50

The following molecules have reported results that may help.
[
  {
    "Molecule smiles": "CC1(C)OB(c2ccc(COc3ccc(CNC(=O)[C@@H]4CCC(=O)N4Cc4ccccc4)cc3)cc2)OC1(C)C",
    "IC50": "0.05 µM"
  },
  {
    "Molecule smiles": "O=C1CC[C@@H](C(=O)NCc2ccc(OCc3ccc(C(=O)O)cc3)cc2)N1",
    "IC50": "> 5 µM"
  },
  {
    "Molecule smiles": "O=C(NCc1ccc(OCc2ccncc2)cc1)[C@@H]1CCC(=O)N1Cc1ccccc1",
    "IC50": "> 5 µM"
  }
]

Incoming: Request body: readout IC50, system Autotaxin (ENPP2) (Mus musculus) (UniProt Q9R1E6), query O=C(NCc1ccc(OCc2ccccc2)cc1)[C@@H]1CCC(=O)N1Cc1ccccc1 . Return the value.
Outgoing: > 5 µM

Incoming: Please give the result for O=C(NCc1ccccc1)[C@@H]1CCC(=O)N1Cc1ccccc1 too.
Outgoing: > 5 µM

Incoming: CC1(C)OB(c2ccc(COc3ccc(CNC(=O)[C@@H]4CCC(=O)N4Cc4ccc(F)cc4)cc3)cc2)OC1(C)C ?
Outgoing: 0.12 µM

Incoming: Also need O=C(NO)c1ccc(COc2ccc(CNC(=O)[C@@H]3CCC(=O)N3Cc3ccccc3)cc2)cc1 , thanks.
Outgoing: 0.7 µM

Incoming: Continue with O=C(O)c1ccc(COc2ccc(CNC(=O)[C@H]3CCC(=O)N3Cc3ccccc3)cc2)cc1
Outgoing: > 5 µM

Incoming: Thanks! And O=C(NCc1ccc(OCc2ccc(-c3nn[nH]n3)cc2)cc1)[C@@H]1CCCN1Cc1ccccc1 ?
Outgoing: > 5 µM
